Experiment: Selectivity ratio of IC50 for human ALK4 to IC50 for human ALK2
Assay type: ADME
Lab note: compare Ratio IC50 against 60. Equal or greater, write T. Smaller, write F.

Here are 4 compounds together with their reported answers.
COc1cc(-c2cncc(-c3ccc(N4CCNCC4)cc3)c2)cc(OC)c1OC F
COc1cc(-c2cncc(-c3ccc(N4CCNCC4)cc3)c2C#N)cc(OC)c1OC T
COc1cc(-c2cncc(-c3ccc(N4CCN(S(C)(=O)=O)CC4)cc3)c2C)cc(OC)c1OC F
COc1cc(-c2cncc(-c3ccc(N4CCNCC4)cc3)c2F)cc(OC)c1OC F

// switching to the query compound
## Input Ratio IC50 >= 60 for COc1cc(-c2cncc(-c3ccc(OC4CCNCC4)cc3)c2C)cc(OC)c1OC ?
## Output T

---

Molecular target: TGF-beta receptor type-1 (Homo sapiens)
Sequence (P36897 whole entry): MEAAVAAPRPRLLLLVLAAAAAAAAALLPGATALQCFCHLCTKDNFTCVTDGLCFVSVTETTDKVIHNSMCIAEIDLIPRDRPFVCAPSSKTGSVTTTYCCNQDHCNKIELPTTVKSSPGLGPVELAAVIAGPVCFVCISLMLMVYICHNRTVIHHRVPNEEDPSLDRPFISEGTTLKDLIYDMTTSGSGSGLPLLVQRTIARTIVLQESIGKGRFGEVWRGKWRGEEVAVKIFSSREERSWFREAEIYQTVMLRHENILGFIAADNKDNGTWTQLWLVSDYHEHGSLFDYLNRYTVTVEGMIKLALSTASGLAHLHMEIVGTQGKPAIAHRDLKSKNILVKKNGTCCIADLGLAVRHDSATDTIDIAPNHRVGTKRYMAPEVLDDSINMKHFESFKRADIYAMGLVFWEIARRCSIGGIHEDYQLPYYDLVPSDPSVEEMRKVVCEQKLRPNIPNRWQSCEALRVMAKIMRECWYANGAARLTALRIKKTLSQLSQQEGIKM
Assay: Inhibition of human ALK5 using casein as substrate in presence of [gamma-33P]-ATP by radiometric hotspot assay
Type: ADME
Threshold-based label: IC50 under 3000 nM gives true, IC50 not under 3000 nM gives false.

Here are 3 compounds together with their reported answers.
COc1cc(-c2cncc(-c3ccc(OC4CCNCC4)cc3)c2C)cc(OC)c1OC true
COc1cc(-c2cncc(-c3ccc(OC4CCN(C)CC4)cc3)c2C)cc(OC)c1OC true
COc1cc(-c2cncc(-c3ccc(N4CCN(C(C)C)CC4)cc3)c2C)cc(OC)c1OC true

## Input Hello, I'm reviewing records and need to know if IC50 of COc1cc(-c2cncc(-c3ccc(N4CCNCC4)cc3)c2C#N)cc(OC)c1F is below 3000 nM. Could you check?
## Output true

## Input Hello, I'm reviewing records and need to know if IC50 of COc1cc(-c2cncc(-c3ccc(N4CCN(CCF)CC4)cc3)c2C)cc(OC)c1OC is below 3000 nM. Could you check?
## Output false

---

Assay: Protein binding in CD-1 mouse brain at 1 mg/kg, iv measured at 2 hrs
Format: ADME, organism-based
Details: read-out: PB (converted)
reported-property: fraction unbound at 2 h
Answers are plain numbers.

## Input What value of fraction unbound at 2 h has been reported for the following molecule? COc1cc(-c2cncc(-c3ccc(N4CCNCC4)cc3)c2C)cc(OC)c1OC
## Output 0.03

---

Assay: Protein binding in CD-1 mouse plasma at 1 mg/kg, iv measured at 2 hrs by LC/MS/MS method
Assay type: ADME, organism-based
Details: read-out: PPB
reported-property: fraction unbound at 2 h
One number for each entry.

## Input What value of fraction unbound at 2 h has been reported for the following compound? COc1cc(-c2cncc(-c3ccc(N4CCNCC4)cc3)c2C)cc(OC)c1OC
## Output 0.09

---

Molecular target: Bone morphogenetic protein receptor type-1B (Homo sapiens, UniProt O00238)
Sequence (O00238 whole entry): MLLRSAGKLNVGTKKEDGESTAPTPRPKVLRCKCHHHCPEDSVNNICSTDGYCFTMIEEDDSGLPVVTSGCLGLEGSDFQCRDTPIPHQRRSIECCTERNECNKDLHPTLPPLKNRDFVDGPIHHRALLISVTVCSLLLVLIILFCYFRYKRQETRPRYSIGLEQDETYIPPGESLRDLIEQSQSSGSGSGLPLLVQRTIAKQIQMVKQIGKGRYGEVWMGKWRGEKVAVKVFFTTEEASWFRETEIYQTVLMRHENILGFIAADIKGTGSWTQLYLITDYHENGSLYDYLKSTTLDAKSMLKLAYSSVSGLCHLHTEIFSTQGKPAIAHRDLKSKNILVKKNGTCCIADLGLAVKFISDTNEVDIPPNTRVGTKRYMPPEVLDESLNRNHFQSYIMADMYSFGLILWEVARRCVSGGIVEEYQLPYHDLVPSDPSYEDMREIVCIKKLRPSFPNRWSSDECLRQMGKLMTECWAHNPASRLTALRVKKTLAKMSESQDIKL
reported-property: pIC50
Answers are plain numbers, as −log10 of the molar value.

## Input What value of pIC50 has been reported for the following molecule? COc1cc(-c2cncc(-c3ccc(N4CCNCC4)cc3)c2C)cc(OC)c1OC
## Output 7.17

---

Target: Cannabinoid receptor 1 (Homo sapiens)
Sequence (P21554 whole entry): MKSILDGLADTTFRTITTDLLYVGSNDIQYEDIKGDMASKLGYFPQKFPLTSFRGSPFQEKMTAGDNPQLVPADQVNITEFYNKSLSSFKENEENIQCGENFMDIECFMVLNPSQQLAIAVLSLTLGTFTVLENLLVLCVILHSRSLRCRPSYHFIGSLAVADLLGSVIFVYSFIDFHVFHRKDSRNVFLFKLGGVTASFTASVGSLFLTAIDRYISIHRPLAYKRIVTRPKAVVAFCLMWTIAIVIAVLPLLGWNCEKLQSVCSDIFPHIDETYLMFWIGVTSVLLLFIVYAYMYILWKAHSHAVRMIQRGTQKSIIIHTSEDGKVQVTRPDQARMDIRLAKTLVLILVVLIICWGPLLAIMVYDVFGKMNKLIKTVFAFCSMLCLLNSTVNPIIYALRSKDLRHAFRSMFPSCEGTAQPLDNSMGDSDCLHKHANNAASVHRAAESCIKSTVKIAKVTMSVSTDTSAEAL
Experiment: Inhibition of recombinant human CB1 incubated for 60 mins by scintillation counting method
reported-property: pIC50
Give bare numbers, as −log10 of the molar value.

## Input What value of pIC50 has been reported for the following compound? COc1cc(-c2cncc(-c3ccc(N4CCNCC4)cc3)c2C)cc(OC)c1OC
## Output 5.76

---

Please go through the items and note down their IC50.
Target: UniProt P36897
Sequence (P36897 whole entry): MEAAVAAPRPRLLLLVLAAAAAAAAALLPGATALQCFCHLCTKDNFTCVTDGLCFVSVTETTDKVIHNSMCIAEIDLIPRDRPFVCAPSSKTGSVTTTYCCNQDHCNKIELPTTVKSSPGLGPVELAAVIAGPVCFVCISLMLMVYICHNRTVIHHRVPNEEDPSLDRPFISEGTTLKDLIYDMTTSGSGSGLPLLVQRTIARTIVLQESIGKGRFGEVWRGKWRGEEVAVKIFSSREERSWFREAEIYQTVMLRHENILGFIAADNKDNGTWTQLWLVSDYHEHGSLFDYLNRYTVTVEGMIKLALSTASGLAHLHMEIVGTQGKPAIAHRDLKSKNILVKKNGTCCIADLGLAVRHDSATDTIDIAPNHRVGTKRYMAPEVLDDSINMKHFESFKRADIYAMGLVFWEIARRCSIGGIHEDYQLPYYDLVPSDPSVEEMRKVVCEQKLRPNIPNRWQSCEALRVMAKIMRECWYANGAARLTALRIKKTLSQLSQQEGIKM
Test: Inhibition of human ALK5 using casein as substrate in presence of [gamma-33P]-ATP by radiometric hotspot assay
Assay type: ADME
Answers are plain numbers, in nM.

Below, each entry is followed by its recorded IC50 result.
COc1cc(-c2cncc(-c3ccc(N4CCN(C)CC4)cc3)c2C)cc(OC)c1OC 4850
COc1cc(-c2cncc(-c3ccc(N4CCN(S(C)(=O)=O)CC4)cc3)c2C)cc(OC)c1OC 1980

Hi, could you look up IC50 for each item in my list?
1. COc1cc(-c2cncc(-c3ccc(N4C[C@@H](C)N[C@@H](C)C4)cc3)c2C)cc(OC)c1OC
2. COc1cc(-c2cncc(-c3ccc(N4CCOCC4)cc3)c2C)cc(OC)c1OC

## Output
1: 1050; 2: 2360

---

Target: TGF-beta receptor type-1 (Homo sapiens, UniProt P36897)
Sequence (P36897 whole entry): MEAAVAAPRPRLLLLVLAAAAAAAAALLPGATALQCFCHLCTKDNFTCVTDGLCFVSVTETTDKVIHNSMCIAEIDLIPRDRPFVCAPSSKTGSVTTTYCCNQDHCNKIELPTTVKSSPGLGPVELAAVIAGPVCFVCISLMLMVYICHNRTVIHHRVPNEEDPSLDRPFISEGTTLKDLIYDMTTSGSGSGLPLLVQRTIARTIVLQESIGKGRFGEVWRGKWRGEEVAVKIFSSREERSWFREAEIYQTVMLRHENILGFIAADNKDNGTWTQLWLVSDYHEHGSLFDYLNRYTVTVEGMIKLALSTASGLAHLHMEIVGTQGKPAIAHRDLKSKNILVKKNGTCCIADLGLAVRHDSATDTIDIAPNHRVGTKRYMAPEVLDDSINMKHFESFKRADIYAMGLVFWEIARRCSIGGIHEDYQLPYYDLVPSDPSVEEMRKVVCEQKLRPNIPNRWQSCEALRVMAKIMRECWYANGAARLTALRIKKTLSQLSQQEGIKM
Experiment: Inhibition of human ALK5 using casein as substrate in presence of [gamma-33P]-ATP by radiometric hotspot assay
Format: ADME
reported-property: IC50

Below, each entry is followed by its recorded IC50 result.
COc1cc(OC)cc(-c2cncc(-c3ccc(N4CCNCC4)cc3)c2C)c1 > 5000 nM
COc1cc(-c2cncc(-c3ccc(N4CCCNCC4)cc3)c2C)cc(OC)c1OC 3050 nM
COc1cc(-c2cncc(-c3ccc(N4CCNCC4)cc3)c2F)cc(OC)c1OC 880 nM
COc1cc(-c2cncc(-c3ccc(C4=CCN(C)CC4)cc3)c2C)cc(OC)c1OC 2520 nM

# context switch: different compound, same IC50
## Input What value of IC50 has been reported for the following compound? COc1cc(-c2cncc(-c3ccc(N4CCNCC4)cc3)c2C#N)cc(OC)c1OC
## Output 731 nM

---

Test: Apparent permeability across apical to basolateral side in human Caco2 cells at 5 uM after 120 mins by LC-MS/MS analysis
Settings: Caco-2
Please go through the items and note down their Papp A→B at 2 h, 5 µM.
Numbers only, in ×10⁻⁶ cm/s.

Hi, could you look up Papp A→B at 2 h, 5 µM for each item in my list?
1. COc1cc(-c2cncc(-c3ccc(N4CCN(S(C)(=O)=O)CC4)cc3)c2C)cc(OC)c1OC
2. COc1cc(-c2cncc(-c3ccc(OC4CCNCC4)cc3)c2C)cc(OC)c1OC
3. COc1cc(-c2cncc(-c3ccc(C4=CCNCC4)cc3)c2C)cc(OC)c1OC

## Output
1: 34.5; 2: 4.1; 3: 2.9
